- target desc: BRD4 (BDI_K57-E168) (Homo sapiens)
- Construct: BD1: amino acids K57-E168
- protocol: TR-FRET bromodomain binding assay, BRD4 first bromodomain
- test conditions: His-tagged BD1, 100 nM Alexa647 probe; Ki calculated from IC50; dilution protocol A-G
property name: Ki (nM)
Numeric only. Scale: nM

Given item "Cc1[nH]c(-c2ccccc2Oc2ccccc2)c2cc(C(=O)NCCN3CCCC3)[nH]c(=O)c12" , the value recorded as its Ki is 3.12

Given item "Cc1[nH]c(-c2cc(NS(C)(=O)=O)ccc2Oc2ccc(F)cc2F)c2cn[nH]c(=O)c12" , the value recorded as its Ki is 3.26

Given item "Cc1[nH]c(-c2ccccc2Oc2ccccc2)c2cc(C(=O)NCCN3CCOCC3)[nH]c(=O)c12" , the value recorded as its Ki is 3.81

Given item "CCOC(=O)c1cc2c(-c3cc(CS(C)(=O)=O)ccc3Oc3ccc(F)cc3F)[nH]c(C)c2c(=O)[nH]1" , the value recorded as its Ki is 2.12

Given item "CCS(=O)(=O)Nc1ccc(Oc2ccccc2)c(-c2[nH]c(C)c3c(=O)[nH]c(C(=O)OC)cc23)c1" , the value recorded as its Ki is 2.15

Given item "Cc1[nH]c(-c2cc(F)ccc2OCC2CC2)c2cc(-c3nc(-c4cnccn4)no3)[nH]c(=O)c12" , the value recorded as its Ki is 38.5

Given item "Cc1[nH]c(-c2cc(N)ccc2Oc2ccccc2)c2cn[nH]c(=O)c12" , the value recorded as its Ki is 1.88

Given item "Cc1[nH]c(-c2ccccc2Oc2ccccc2)c2nc(-c3ccco3)[nH]c(=O)c12" , the value recorded as its Ki is 380

Given item "Cc1[nH]c(-c2cc(NS(C)(=O)=O)ccc2Oc2ccccc2)c2c1C(=O)NCC2" , the value recorded as its Ki is 3.67

Given item "CCOC(=O)c1cc2c(-c3cc(S(C)(=O)=O)ccc3Oc3ccc(F)cc3F)[nH]c(C)c2c(=O)[nH]1" , the value recorded as its Ki is 12.1

Given item "Cc1[nH]c(-c2ccccc2Oc2ccccc2)c2nc[nH]c(=O)c12" , the value recorded as its Ki is 92.4

Given item "Cc1[nH]c(-c2ccccc2Oc2ccccc2)c2cc(C(=O)NC3CN(C)C3)[nH]c(=O)c12" , the value recorded as its Ki is 3.43

Given item "Cc1[nH]c(-c2cc(N)ccc2Oc2ccccc2)c2c1C(=O)NCC2" , the value recorded as its Ki is 17.2

Given item "CCOC(=O)c1cc2c(-c3cc(NS(=O)(=O)CC)ccc3Oc3ccc(F)cc3F)[nH]c(C)c2c(=O)[nH]1" , the value recorded as its Ki is 1.46

Given item "Cc1[nH]c(-c2ccccc2Oc2ccccc2)c2cc(C(=O)NC3CCNCC3)[nH]c(=O)c12" , the value recorded as its Ki is 1.78

Given item "COCCNC(=O)c1cc2c(-c3ccccc3Oc3ccccc3)[nH]c(C)c2c(=O)[nH]1" , the value recorded as its Ki is 10.6

###

- target desc: BRD4 (BDII_E352-M457) (Homo sapiens, UniProt O60885)
- Construct: made in house
- protocol: TR-FRET bromodomain binding assay, BRD4 second bromodomain
For each of the compounds below, state its Ki.
Numeric only. Scale: nM

So the reported Ki for "Cc1[nH]c(-c2ccccc2Oc2ccccc2)c2cc(C(=O)N3CCN(C)CC3)[nH]c(=O)c12" , on BRD4 (BDII_E352-M457) (Homo sapiens, UniProt O60885), turned out to be 170

So the reported Ki for "Cc1[nH]c(-c2cc(NS(C)(=O)=O)ccc2Oc2ccc(F)cc2F)c2c1C(=O)NCC2" , on BRD4 (BDII_E352-M457) (Homo sapiens, UniProt O60885), turned out to be 138

So the reported Ki for "COC(=O)c1cc2c(-c3cc(NS(C)(=O)=O)ccc3Oc3ccccc3)[nH]c(C)c2c(=O)[nH]1" , on BRD4 (BDII_E352-M457) (Homo sapiens, UniProt O60885), turned out to be 19.8

So the reported Ki for "Cc1[nH]c(-c2cc(CO)ccc2Oc2ccc(F)cc2F)c2c1C(=O)NCC2" , on BRD4 (BDII_E352-M457) (Homo sapiens, UniProt O60885), turned out to be 198

So the reported Ki for "Cc1[nH]c(-c2ccccc2Oc2ccccc2)c2cc(C(=O)N(C)C)[nH]c(=O)c12" , on BRD4 (BDII_E352-M457) (Homo sapiens, UniProt O60885), turned out to be 944

So the reported Ki for "CNC(=O)c1cc2c(-c3ccccc3Oc3ccccc3)[nH]c(C)c2c(=O)[nH]1" , on BRD4 (BDII_E352-M457) (Homo sapiens, UniProt O60885), turned out to be 14.1

So the reported Ki for Cc1[nH]c(-c2ccccc2Oc2ccccc2)c2cc(C(=O)NC3CCOC3)[nH]c(=O)c12 (stereo not shown) , on BRD4 (BDII_E352-M457) (Homo sapiens, UniProt O60885), turned out to be 13.9

So the reported Ki for "Cc1[nH]c(-c2cc(C#N)ccc2Oc2ccc(F)cc2F)c2cn[nH]c(=O)c12" , on BRD4 (BDII_E352-M457) (Homo sapiens, UniProt O60885), turned out to be 357

So the reported Ki for COC(=O)C1Cc2c(-c3ccccc3Oc3ccccc3)[nH]c(C)c2C(=O)N1 (stereo not shown) , on BRD4 (BDII_E352-M457) (Homo sapiens, UniProt O60885), turned out to be 157

So the reported Ki for "Cc1noc(-c2cc3c(-c4ccccc4Oc4ccccc4)[nH]c(C)c3c(=O)[nH]2)n1" , on BRD4 (BDII_E352-M457) (Homo sapiens, UniProt O60885), turned out to be 138

So the reported Ki for "Cc1[nH]c(-c2cc(NS(C)(=O)=O)ccc2Oc2ccc(F)cc2F)c2cc(C(N)=O)[nH]c(=O)c12" , on BRD4 (BDII_E352-M457) (Homo sapiens, UniProt O60885), turned out to be 6.08

So the reported Ki for "Cc1[nH]c(-c2cc(S(C)(=O)=O)ccc2Oc2ccc(F)cc2F)c2cc(C(N)=O)[nH]c(=O)c12" , on BRD4 (BDII_E352-M457) (Homo sapiens, UniProt O60885), turned out to be 56.9

So the reported Ki for "CCOC(=O)c1cc2c(-c3cc(F)ccc3OCC3CC3)[nH]c(C)c2c(=O)[nH]1" , on BRD4 (BDII_E352-M457) (Homo sapiens, UniProt O60885), turned out to be 416

So the reported Ki for "Cc1[nH]c(-c2ccccc2Oc2ccccc2)c2cc(C(=O)NC3CN(C)C3)[nH]c(=O)c12" , on BRD4 (BDII_E352-M457) (Homo sapiens, UniProt O60885), turned out to be 70.2

So the reported Ki for "CCOC(=O)c1cc2c(-c3ccccc3Oc3ccc(F)cc3F)[nH]c(C)c2c(=O)[nH]1" , on BRD4 (BDII_E352-M457) (Homo sapiens, UniProt O60885), turned out to be 285

So the reported Ki for "CCOC(=O)c1cc2c(-c3cc(NS(=O)(=O)CC)ccc3Oc3ccccc3)[nH]c(C)c2c(=O)[nH]1" , on BRD4 (BDII_E352-M457) (Homo sapiens, UniProt O60885), turned out to be 3.31
